Below, each of the compounds is paired with its reported growth AUC value.
System: Bacteroides stercoris
Test Protocol: growth AUC relative to DMSO control (median of replicates) (fraction); higher = more growth (less inhibition), active = hit call of the paper
Particulars: 20 µM; 24 h
Answer with a number only.

Answered examples (8):
O=C(O)c1ccc(Cl)cc1Cl
0.959
Nc1cccc(O)c1
0.939
COC(=O)c1ccc(C)cc1C1=NC(C)(C(C)C)C(=O)N1 (racemic)
0.863
O=c1oc(-c2ccccc2)nc2ccccc12
0.955
CC1=C(C(=O)Nc2ccccc2)CCCO1
0.951
CC(C)NS(=O)(=O)NC(=O)c1cc(-n2c(=O)cc(C(F)(F)F)[nH]c2=O)c(F)cc1Cl
0.984
C#CCOc1cc(-n2nc(C(C)(C)C)oc2=O)c(Cl)cc1Cl
0.879
COc1cc(OC)nc(NC(=O)NS(=O)(=O)Nc2ccccc2C(=O)C2CC2)n1
0.983

Quick note, growth AUC for Oc1c(Cl)cc(Cl)c(Cl)c1Cc1c(O)c(Cl)cc(Cl)c1Cl landed at 0.00917

The reported value for CCOCCOC(=O)C(C)Oc1ccc(Oc2ncc(C(F)(F)F)cc2Cl)cc1 (stereo unspecified) in terms of growth AUC is 0.903

get_value(item= COC(=O)C(C)Oc1ccc(Oc2ccc(C(F)(F)F)cn2)cc1 (stereo unspecified) , readout=growth AUC) returns 1.23

* * *

Test system: Roseburia intestinalis
Test Protocol: growth AUC relative to DMSO control (median of replicates) (fraction); higher = more growth (less inhibition), active = hit call of the paper
Particulars: 20 µM; 24 h
Criterion: growth AUC meeting or surpassing 1. Met: TRUE. Not met: FALSE.

Reference set (3 entries):
CC(C)CCCCCOC(=O)C(C)Oc1ccc(Cl)cc1Cl (stereo not drawn)
TRUE
Oc1ccc2ccccc2c1N=Nc1ccccc1
TRUE
FC(F)(F)/N=C1\SC(=Nc2ccccc2)N(c2ccccc2)\C1=N\C(F)(F)F
FALSE

Query: Does the reported growth AUC for CN(C)C=O fall at or above the 1 mark?
Reply: TRUE

Query: Say whether CCc1cccc(C)c1N(C(=O)CS(=O)(=O)[O-])C(C)COC.[Na+] (stereo not drawn) shows growth AUC of 1 or more.
Reply: FALSE

Query: # bool: growth AUC of CCCOc1nc2ccc(I)cc2c(=O)n1CCC >= 1
Reply: FALSE

Query: hey, is growth AUC for this one >= 1? COc1cc(OC)nc(NC(=O)NS(=O)(=O)Nc2ccccc2C(=O)C2CC2)n1
Reply: TRUE

Query: Is growth AUC at least 1? Consider c1ccc(Sc2ccccc2)cc1
Reply: TRUE

Query: Threshold query (growth AUC >= 1) on CCOC(=O)Cn1c(=O)sc2cccc(Cl)c21
Reply: FALSE

* * *

Test system: Eubacterium rectale
Test Protocol: growth AUC relative to DMSO control (median of replicates) (fraction); higher = more growth (less inhibition), active = hit call of the paper
Particulars: 20 µM; 24 h
Listed here are compounds together with their documented growth AUC.
Answer with a number only.

response.value for CNc1nc(NC(C)C)nc(SC)n1 (field: growth AUC) = 0.879

Measured growth AUC, CC(CNC(=S)[S-])NC(=S)[S-].[Zn+2] (mixture of isomers) : 1.15

Form: compound = CNC(=O)/C(=N/OC)c1ccccc1COc1cc(C(=O)O)ccc1C ; growth AUC = 0.963

* * *

Tested on: Bacteroides clarus
Test Protocol: growth AUC relative to DMSO control (median of replicates) (fraction); higher = more growth (less inhibition), active = hit call of the paper
Particulars: 20 µM; 24 h
growth AUC values for the molecules below.

Known growth AUC results, listed for orientation:
CO/N=C(/C(=O)O)c1ccccc1CO/N=C(\C)c1cccc(C(F)(F)F)c1
0.954 (inactive)
O=C(NC(=O)c1c(F)cccc1F)Nc1cc(C(F)(F)F)cc(C(F)(F)F)c1Cl
0.867 (inactive)
N#Cc1ccccc1NC(=O)c1snc(Cl)c1Cl
0.982 (inactive)
CC1=C(C(=O)Nc2ccccc2)CCCO1
1.01 (inactive)
COc1nc(N)nc(NC(C)(C)C)n1
0.965 (inactive)

Briefly, growth AUC measured for C#CCOC(=O)[C@@H](C)Oc1ccc(Oc2ncc(Cl)cc2F)cc1 : 0.985 (inactive)

Summary for this molecule, CC(C)NS(=O)(=O)NC(=O)c1cc(-n2c(=O)cc(C(F)(F)F)[nH]c2=O)c(F)cc1Cl : growth AUC is 1.01 (inactive)

The recorded growth AUC for entry CCc1cccc(CC)c1N(COC)C(=O)C(=O)O equals 0.971 (inactive)

Note to self: growth AUC recorded for CC(C)(c1ccc(O)cc1)c1ccc(O)cc1 was 1.04 (inactive)

The recorded growth AUC for FC(F)(F)c1cccc(C(c2ccccc2)(c2ccccc2)n2cncn2)c1 is 0.93 (inactive)

* * *

System: Eubacterium rectale
Test Protocol: growth AUC relative to DMSO control (median of replicates) (fraction); higher = more growth (less inhibition), active = hit call of the paper
Particulars: 20 µM; 24 h
growth AUC values by entry
Format: numeric value only, no unit, no commentary.

Solved entries:
CN(C)C(=O)Nc1cc(C(C)(C)C)on1
0.949
CN(C)c1ccc(N=NS(=O)(=O)[O-])cc1.[Na+]
0.973
CCCOc1nc2ccc(I)cc2c(=O)n1CCC
0.996
CC[N+](CC)(CC(=O)Nc1c(C)cccc1C)Cc1ccccc1.O=C([O-])c1ccccc1
1.14
Cc1c(Br)c2ccc(F)cc2n1S(=O)(=O)c1ncn(S(=O)(=O)N(C)C)n1
0.989

Quick note, growth AUC for O=C(Nc1ccc(F)cc1-c1ccc(Cl)c(Cl)c1)c1cn[nH]c1C(F)F landed at 0.82

* * *

System: Bacteroides stercoris
Test Protocol: growth AUC relative to DMSO control (median of replicates) (fraction); higher = more growth (less inhibition), active = hit call of the paper
Particulars: 20 µM; 24 h
Collected growth AUC values appear next to each entry.
Lab note: record the figure alone, no unit after it.

CCCCOC(=O)[C@@H](C)Oc1ccc(Oc2ccc(C(F)(F)F)cn2)cc1
0.851
CCCOC(=O)NCCCN(C)C
0.98
O=S(Cc1ccc(Cl)cc1)c1ccc(Cl)cc1 (stereo not drawn)
0.964
Oc1ccc2ccccc2c1N=Nc1ccccc1
0.972
Oc1ccccc1
0.992
CCOC(=O)[C@@H](C)Oc1ccc(Oc2cnc3cc(Cl)ccc3n2)cc1
0.996
CCCCC(CC)COC(=O)COc1ccc(Cl)cc1C (stereo not drawn)
0.983
CCSC(=O)N(CC)CC
1.1

The compound listed as COC(=O)COc1ccc(Cl)cc1C shows growth AUC equal to 1.03

Field growth AUC (entry CCN(CC)c1nc(C)cc(=O)[nH]1 ) reads 1.11

Lab note: CC(C)(c1ccc(O)cc1)c1ccc(O)cc1 gave growth AUC of 1.14

# compound CCCNCCOc1c(Cl)cc(Cl)cc1Cl ; its growth AUC = 0.898

CCC/C(=N\OCC)C1=C(O)CC(C2CCCSC2)CC1=O (stereo not drawn) yielded growth AUC of 0.999

* * *

Test system: Bacteroides uniformis
Test Protocol: growth AUC relative to DMSO control (median of replicates) (fraction); higher = more growth (less inhibition), active = hit call of the paper
Particulars: 20 µM; 24 h
If the reported growth AUC equals or exceeds 1, assign TRUE. If not, assign FALSE.

Known results for compounds:
CC(C)N(C(=O)CS(=O)(=O)[O-])c1ccccc1.[Na+]
TRUE
COC(=O)c1ccccc1S(=O)(=O)NC(=O)n1nc(OCC(C)O)n(C)c1=O (stereo not given)
TRUE

Now look at this entry.
Query: Tell me whether growth AUC is at least 1 here: COC(=O)Nc1ccc(Cl)c(Cl)c1
Reply: FALSE

* * *

// reported growth AUC for each item listed
Tested on: Bacteroides thetaiotaomicron
Test Protocol: growth AUC relative to DMSO control (median of replicates) (fraction); higher = more growth (less inhibition), active = hit call of the paper
Particulars: 20 µM; 24 h
Just the number, please, no unit attached.

CC(CNC(=S)[S-])NC(=S)[S-].[Zn+2] (mixture of isomers)
1.01

Record CC(=O)CC(c1ccccc1)c1c(O)c2ccccc2oc1=O (stereo not given) / Bacteroides thetaiotaomicron, growth AUC recorded as 0.952

Bacteroides thetaiotaomicron growth AUC of Cc1c(C(=O)c2c[nH]n(C)c2=O)ccc(S(C)(=O)=O)c1C1=NOCC1 is 1

growth AUC on Bacteroides thetaiotaomicron for CON=C(Cc1cccnc1)c1ccc(Cl)cc1Cl is 0.91

The value of growth AUC recorded for O=C1NCC[n+]2ccccc21.[Br-] when tested on Bacteroides thetaiotaomicron reads 0.972

The measured growth AUC that COc1nc(C)nc(NC(=O)NS(=O)(=O)c2ccccc2OCCCl)n1 showed for Bacteroides thetaiotaomicron is 0.985

Bacteroides thetaiotaomicron data for CCN(CC)C(=O)c1cccc(C)c1 ; its growth AUC: 0.975
